- target-desc: Mu-type opioid receptor (Homo sapiens) + Delta-type opioid receptor (Homo sapiens) (UniProt P35372+P41143)
- Sequence (P35372 whole entry, looked up): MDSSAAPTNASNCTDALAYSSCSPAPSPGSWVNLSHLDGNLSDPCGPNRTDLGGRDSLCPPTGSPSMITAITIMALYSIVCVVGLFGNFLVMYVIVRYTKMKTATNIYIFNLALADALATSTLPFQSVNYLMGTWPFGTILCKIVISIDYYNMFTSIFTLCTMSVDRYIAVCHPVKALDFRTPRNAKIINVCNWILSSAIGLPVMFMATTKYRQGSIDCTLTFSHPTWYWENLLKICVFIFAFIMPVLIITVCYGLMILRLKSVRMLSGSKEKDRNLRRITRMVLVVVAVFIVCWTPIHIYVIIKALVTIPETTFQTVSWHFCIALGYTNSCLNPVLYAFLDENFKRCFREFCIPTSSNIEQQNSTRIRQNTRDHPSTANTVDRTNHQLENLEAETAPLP
- Sequence (P41143 whole entry, looked up): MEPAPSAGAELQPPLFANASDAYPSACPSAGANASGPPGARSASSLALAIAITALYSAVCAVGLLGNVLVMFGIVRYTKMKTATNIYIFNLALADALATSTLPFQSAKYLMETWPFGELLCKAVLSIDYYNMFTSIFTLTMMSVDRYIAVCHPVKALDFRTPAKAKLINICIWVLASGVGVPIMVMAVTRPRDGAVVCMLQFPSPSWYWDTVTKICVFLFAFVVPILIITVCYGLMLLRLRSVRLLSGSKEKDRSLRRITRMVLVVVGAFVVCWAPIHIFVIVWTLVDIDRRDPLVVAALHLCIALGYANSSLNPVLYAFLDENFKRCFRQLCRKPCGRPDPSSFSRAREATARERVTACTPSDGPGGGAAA
- assay-explanation: agonists of OPRM1-OPRD1 heterodimerization, primary screen, cell-based, luminescence (AID 504326);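 also: 0% = vehicle-treated cells and 100% = reference agonist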
- study-conditions: cells, at 9.3 µM
Out of some 340,000 compounds screened, about 990 (0.29%) were called active. Rule as the data show it: active = activation above about 18%; inactive = the rest. The list comes from a sample in which actives are over-represented; it also holds close analogues and randomly drawn compounds.
The reply should be one of these categories: yes (1) for active, no (0) for inactive

Worked examples follow.
compound=O=C1CC[C@H](O)CCN1[C@H](CSc1ccc(Br)cc1)Cc1ccccc1 label_class="no (0)"
compound=CN(C)CCCN(C(=O)c1ccc(S(=O)(=O)N2CCCc3ccccc32)cc1)c1nc2ccc(F)cc2s1 label_class="yes (1)"
compound=O=C(NCCc1ccc2c(c1)OCCO2)c1cc2ccccc2o1 label_class="no (0)"
compound=CC(C)Cc1nnc(NC(=O)CN2C(=O)NC3(CCCCC3)C2=O)s1 label_class="no (0)"
compound=O=C(NCc1ccccc1)c1onc(CSc2ccncc2)c1C(=O)NCc1ccccc1 label_class="no (0)"

Hello, I am checking results. What call was entered for O=C(NC1CCC(O)CC1)c1ccc(S(=O)(=O)NCc2ccco2)cc1 (stereo not given) ? no (0)

Hello, I am checking results. What call was entered for CN(C)C(CNC(=O)Cc1ccc([N+](=O)[O-])cc1)c1ccccc1 (stereo not given) ? yes (1)

Hello, I am checking results. What call was entered for CC(=O)c1ccc(S(=O)(=O)Nc2ccc(C(=O)NCC(c3ccccc3)N(C)C)cc2)cc1 (stereo not given) ? no (0)

Hello, I am checking results. What call was entered for CN(C)C(CNC(=O)c1ccc(S(=O)(=O)NCc2ccco2)cc1)c1ccccc1 (stereo not given) ? yes (1)

Hello, I am checking results. What call was entered for CN(C)CCNC(=O)Cc1ccc([N+](=O)[O-])cc1 ? no (0)
